These measurements were taken from ChEMBL document CHEMBL3102803.

Molecular target: hERG (KCNH2) (Homo sapiens)
Sequence (Q12809 whole entry): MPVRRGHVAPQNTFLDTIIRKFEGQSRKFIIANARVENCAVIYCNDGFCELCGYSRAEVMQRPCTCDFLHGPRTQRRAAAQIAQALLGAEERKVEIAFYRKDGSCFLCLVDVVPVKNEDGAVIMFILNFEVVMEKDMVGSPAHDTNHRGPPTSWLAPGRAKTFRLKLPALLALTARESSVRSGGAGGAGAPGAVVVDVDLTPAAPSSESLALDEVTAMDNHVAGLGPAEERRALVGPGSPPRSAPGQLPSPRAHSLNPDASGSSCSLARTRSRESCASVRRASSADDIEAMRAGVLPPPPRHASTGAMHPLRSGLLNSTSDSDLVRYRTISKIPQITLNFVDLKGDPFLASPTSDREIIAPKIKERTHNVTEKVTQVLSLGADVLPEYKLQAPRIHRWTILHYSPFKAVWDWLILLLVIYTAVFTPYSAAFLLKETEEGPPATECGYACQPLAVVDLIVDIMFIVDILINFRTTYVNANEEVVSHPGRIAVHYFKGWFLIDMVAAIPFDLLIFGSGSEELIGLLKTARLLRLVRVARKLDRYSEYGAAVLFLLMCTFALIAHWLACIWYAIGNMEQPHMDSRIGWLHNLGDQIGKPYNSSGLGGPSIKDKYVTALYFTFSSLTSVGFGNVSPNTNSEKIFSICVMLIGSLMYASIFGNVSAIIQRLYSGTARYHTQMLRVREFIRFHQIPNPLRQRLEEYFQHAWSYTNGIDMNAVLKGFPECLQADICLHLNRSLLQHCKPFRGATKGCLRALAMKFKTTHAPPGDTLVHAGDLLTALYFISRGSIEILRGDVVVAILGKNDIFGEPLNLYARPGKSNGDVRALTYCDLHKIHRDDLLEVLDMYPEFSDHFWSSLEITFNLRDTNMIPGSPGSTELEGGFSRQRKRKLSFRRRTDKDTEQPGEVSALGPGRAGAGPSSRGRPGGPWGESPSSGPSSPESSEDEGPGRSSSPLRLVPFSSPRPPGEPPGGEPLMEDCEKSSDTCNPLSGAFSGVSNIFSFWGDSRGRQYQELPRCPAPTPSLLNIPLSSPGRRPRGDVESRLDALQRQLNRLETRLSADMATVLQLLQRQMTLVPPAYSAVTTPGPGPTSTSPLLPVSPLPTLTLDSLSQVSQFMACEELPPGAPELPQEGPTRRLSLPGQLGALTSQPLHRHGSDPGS
Experiment: Inhibition of human ERG at 3 uM by patch clamp assay
reported_endpoint: inhibition at 3 µM (%)

>>> endpoint_result("CC(=O)N1CCC(C(=O)N(CCCN2CCC(C(=O)NCc3ccccc3)CC2)c2cccc(Cl)c2)CC1")
15.2

====

Assay: AUC (0 to 24 hrs) in Sprague-Dawley rat at 4 mg/kg, iv
Type: ADME, organism-based
Design: time < 24 hr, dose 4 mg/kg, route intravenous
Details: plasma
reported_endpoint: AUC(0-t) at 24 h (ng·h/mL)

>>> endpoint_result("CC(=O)N1CCC(C(=O)N(CCCN2CCC(C(=O)NCc3ccccc3)CC2)c2cccc(Cl)c2)CC1")
3250
